- targetUnderTest: NIH-3T3 cells overexpressing human IGF-1R (Homo sapiens, UniProt P08069)
- Sequence (P08069 31-1367): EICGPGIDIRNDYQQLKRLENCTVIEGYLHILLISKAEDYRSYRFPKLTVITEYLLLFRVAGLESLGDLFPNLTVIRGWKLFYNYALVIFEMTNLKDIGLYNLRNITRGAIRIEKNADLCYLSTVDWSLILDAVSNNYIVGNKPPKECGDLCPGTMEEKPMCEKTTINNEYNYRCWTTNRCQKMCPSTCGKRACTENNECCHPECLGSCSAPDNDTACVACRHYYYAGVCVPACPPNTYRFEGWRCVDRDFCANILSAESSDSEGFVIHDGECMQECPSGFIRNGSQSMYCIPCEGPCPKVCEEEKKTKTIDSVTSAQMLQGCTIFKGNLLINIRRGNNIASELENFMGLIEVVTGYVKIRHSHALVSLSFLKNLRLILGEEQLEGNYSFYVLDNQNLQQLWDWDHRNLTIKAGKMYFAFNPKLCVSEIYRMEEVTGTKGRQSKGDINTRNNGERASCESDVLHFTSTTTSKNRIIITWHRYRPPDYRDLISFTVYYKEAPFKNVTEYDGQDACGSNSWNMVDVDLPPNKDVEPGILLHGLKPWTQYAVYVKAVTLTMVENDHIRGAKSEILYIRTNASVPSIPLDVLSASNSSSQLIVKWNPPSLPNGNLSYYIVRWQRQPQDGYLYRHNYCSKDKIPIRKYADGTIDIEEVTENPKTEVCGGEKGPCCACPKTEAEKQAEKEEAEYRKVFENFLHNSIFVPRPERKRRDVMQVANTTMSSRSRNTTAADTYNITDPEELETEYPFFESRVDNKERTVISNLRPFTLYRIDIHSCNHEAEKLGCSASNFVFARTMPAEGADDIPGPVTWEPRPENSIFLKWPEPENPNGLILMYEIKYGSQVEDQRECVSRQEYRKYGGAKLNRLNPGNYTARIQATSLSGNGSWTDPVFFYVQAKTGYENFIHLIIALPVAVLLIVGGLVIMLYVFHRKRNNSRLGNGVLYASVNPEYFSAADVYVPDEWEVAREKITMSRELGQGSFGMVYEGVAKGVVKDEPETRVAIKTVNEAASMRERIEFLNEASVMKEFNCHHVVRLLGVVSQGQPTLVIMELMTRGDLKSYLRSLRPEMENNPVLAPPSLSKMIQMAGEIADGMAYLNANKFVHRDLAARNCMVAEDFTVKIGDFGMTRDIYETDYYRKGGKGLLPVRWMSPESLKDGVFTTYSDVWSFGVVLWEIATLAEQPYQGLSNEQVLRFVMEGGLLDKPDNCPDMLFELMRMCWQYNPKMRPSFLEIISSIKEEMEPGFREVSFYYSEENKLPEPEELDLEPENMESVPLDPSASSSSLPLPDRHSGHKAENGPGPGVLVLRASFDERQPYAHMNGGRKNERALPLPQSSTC
- method: IGF-1R cellular autophosphorylation (DELFIA)
Each entry below carries its reported IC50.

CCCN(CCC)[C@@H](C)C(=O)N1CCc2cc(OC)c(Nc3nc(Nc4cccc(F)c4C(=O)NC)c4cc[nH]c4n3)cc21 [Example 191]
100 to 500 nM
CNC(=O)c1c(F)cccc1Nc1nc(Nc2cc3c(cc2OC)CCC(=O)N3)nc2[nH]ccc12 [Example 222]
> 500 nM
COc1cc2c(cc1Nc1nc(Nc3cccc(F)c3C(N)=O)c3cc[nH]c3n1)CCN2C(=O)CN(C)C [Example 197]
100 to 500 nM
COc1cc2c(cc1Nc1nc(Nc3cc4ccccc4cc3C(N)=O)c3cc[nH]c3n1)N(C(=O)CN(C)C)CC2 [Example 124]
< 100 nM
CCCN1CCC(N2CCc3cc(OC)c(Nc4nc(Nc5cccc(F)c5C(N)=O)c5cc[nH]c5n4)cc3C2)CC1 [Example 122]
100 to 500 nM

Ask: Look up and report IC50, with NIH-3T3 cells overexpressing human IGF-1R (Homo sapiens, UniProt P08069) as system, for COc1cc2c(cc1Nc1nc(Nc3cccc(F)c3C(N)=O)c3cc[nH]c3n1)N(C(=O)CCN1CCN(C(C)C)CC1)CC2 [Example 188]
Result: > 500 nM

Ask: Look up and report IC50, with NIH-3T3 cells overexpressing human IGF-1R (Homo sapiens, UniProt P08069) as system, for COc1cc(N2CCCN(C(C)C)CC2)ccc1Nc1nc(Nc2cccc(F)c2C(N)=O)c2cc[nH]c2n1 [Example 208]
Result: 100 to 500 nM
